I'd be grateful if you could share measured cAMP EC50 for these entries.
Experimental System: human MC3R (human, UniProt P41968 1-323)
Sequence (P41968 whole entry): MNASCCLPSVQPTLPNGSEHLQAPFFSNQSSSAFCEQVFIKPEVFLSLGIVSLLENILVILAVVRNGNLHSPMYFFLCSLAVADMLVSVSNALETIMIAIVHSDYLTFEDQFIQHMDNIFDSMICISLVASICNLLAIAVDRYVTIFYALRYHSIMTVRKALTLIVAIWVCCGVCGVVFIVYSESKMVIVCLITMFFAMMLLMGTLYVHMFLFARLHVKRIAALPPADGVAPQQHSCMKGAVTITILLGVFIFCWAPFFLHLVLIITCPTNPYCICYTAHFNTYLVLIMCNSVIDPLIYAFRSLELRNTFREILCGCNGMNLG
Assay Overview: cell-based or functional assay
Starred links: 1 amine or outer side, 2 acyl side, 3 side chain; linkers in the order of their positions; H or OH if unused. Positions of bridges follow the written chain, without caps; N, C: chain ends. Non-standard residues stand in square brackets, D forms with d. dPhe(4-NHAc) = 4-acetamido-D-phenylalanine, CC(=O)Nc1ccc(C[C@@H](N[*:1])C(=O)[*:2])cc1; dTyr(4-OMe) = O-methyl-D-tyrosine (4-OMe), COc1ccc(C[C@@H](N[*:1])C(=O)[*:2])cc1; dPhe(4-Br) = N[C@H](Cc1ccc(Br)cc1)C(=O)O
# unit: nM | format: bare number

**Query** Quickly give me recorded cAMP EC50 for Ac-RC[dA]R[dPhe(4-Br)]R[dW]CR[dF]-NH2 (disulfide 2-8; SMILES CC(=O)N[C@@H](CCCNC(=N)N)C(=O)N[C@H]1CSSC[C@@H](C(=O)N[C@@H](CCCNC(=N)N)C(=O)N[C@H](Cc2ccccc2)C(N)=O)NC(=O)[C@@H](Cc2c[nH]c3ccccc23)NC(=O)[C@H](CCCNC(=N)N)NC(=O)[C@@H](Cc2ccc(Br)cc2)NC(=O)[C@H](CCCNC(=N)N)NC(=O)[C@@H](C)NC1=O) [CTX-1222]
**Result** 9.8

**Query** Quickly give me recorded cAMP EC50 for Ac-CGR[dTyr(4-OMe)]RFC-NH2 (disulfide 1-7; SMILES COc1ccc(C[C@H]2NC(=O)[C@H](CCCNC(=N)N)NC(=O)CNC(=O)[C@@H](NC(C)=O)CSSC[C@@H](C(N)=O)NC(=O)[C@H](Cc3ccccc3)NC(=O)[C@H](CCCNC(=N)N)NC2=O)cc1) [CTX-1641]
**Result** 52

**Query** Quickly give me recorded cAMP EC50 for Ac-RC[dA]R[dPhe(4-NHAc)]R[dW]C-NH2 (disulfide 2-8) [CTX-1245]
**Result** 73
